experiment: Pharmacokinetic study, single oral administration to SD rats; details: male, SD, rat, plasma, po, 50 mg/kg
readout.type: half-life (h)
Give a bare numeral; the unit h is implied.

Inquiry: For COc1ccc(/C=C/C(=O)C2(C(=O)/C=C/c3ccc(OC)c(OC)c3)CCC(F)(F)CC2)cc1OC [Compound 8] , what is its reported half-life?
Reply text: 1.57

----------
experiment: Pharmacokinetic study, single oral administration to SD rats; details: male, SD, rat, plasma, po, 50 mg/kg
readout.type: Tmax (min)
Give a bare numeral; the unit min is implied.

Inquiry: For COc1ccc(/C=C/C(=O)C2(C(=O)/C=C/c3ccc(OC)c(OC)c3)CCC(F)(F)CC2)cc1OC , what is its reported Tmax?
Reply text: 19.8

----------
assay: Pharmacokinetic study, single oral administration to SD rats; details: male, SD, rat, plasma, po, 50 mg/kg
readout.type: Cmax

Inquiry: For COc1ccc(/C=C/C(=O)C2(C(=O)/C=C/c3ccc(OC)c(OC)c3)CCC(F)(F)CC2)cc1OC , what is its reported Cmax?
Reply text: 282 ng/mL

----------
Biological target: AR protein expression in human prostate cancer cells LNCaP (Homo sapiens, UniProt P10275, T878A)
Sequence (P10275 1-920 T878A): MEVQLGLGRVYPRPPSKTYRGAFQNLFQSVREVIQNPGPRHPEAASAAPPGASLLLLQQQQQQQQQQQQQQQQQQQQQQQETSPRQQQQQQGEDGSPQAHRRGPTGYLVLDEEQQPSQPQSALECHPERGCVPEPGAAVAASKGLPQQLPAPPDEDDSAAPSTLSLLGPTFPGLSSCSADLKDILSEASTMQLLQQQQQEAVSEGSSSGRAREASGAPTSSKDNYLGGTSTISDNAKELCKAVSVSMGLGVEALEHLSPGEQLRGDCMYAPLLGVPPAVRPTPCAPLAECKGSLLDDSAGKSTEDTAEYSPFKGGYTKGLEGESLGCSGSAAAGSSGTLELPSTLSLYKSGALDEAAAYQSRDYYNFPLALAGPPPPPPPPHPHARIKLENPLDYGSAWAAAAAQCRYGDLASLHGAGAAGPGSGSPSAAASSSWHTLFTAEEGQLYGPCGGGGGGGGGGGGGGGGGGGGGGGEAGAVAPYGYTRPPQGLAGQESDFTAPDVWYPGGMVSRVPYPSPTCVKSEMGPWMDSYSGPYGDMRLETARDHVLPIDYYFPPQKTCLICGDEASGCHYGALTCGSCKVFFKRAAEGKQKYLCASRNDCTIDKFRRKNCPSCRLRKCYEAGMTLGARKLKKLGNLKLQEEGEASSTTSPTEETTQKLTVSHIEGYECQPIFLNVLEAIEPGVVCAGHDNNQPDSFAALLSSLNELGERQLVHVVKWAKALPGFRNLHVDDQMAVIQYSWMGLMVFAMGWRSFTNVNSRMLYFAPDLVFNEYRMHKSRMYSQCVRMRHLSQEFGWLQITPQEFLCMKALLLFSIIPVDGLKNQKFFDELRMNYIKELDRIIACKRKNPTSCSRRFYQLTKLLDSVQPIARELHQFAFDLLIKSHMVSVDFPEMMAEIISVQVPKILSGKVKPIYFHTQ
Test: Reduction of AR protein expression in LNCaP cells (Western blot, with DHT)
Format: cell-based
Conditions: 48 h, 1 nM DHT, concentration basis not given
Structures can show the parent of a compound that is named as a salt.
readout.type: Relative potency (anti-AR activity)

- COc1ccc(/C=C/C(=O)C2(C(=O)/C=C/c3ccc(OC)c(OC)c3)CCC(N3CCOCC3)CC2)cc1OC [Compound 12 hydrochloride]: ++++++ (75 < * ≤ 100)
- COc1ccc(/C=C/C(=O)C2(C(=O)/C=C/c3ccc(OC)c(OC)c3)CCC(N3CCCCC3)CC2)cc1OC [Compound 19 hydrochloride]: ++++++ (75 < * ≤ 100)
- COc1ccc(/C=C/C(=O)C2(C(=O)/C=C/c3ccc(OC)c(OC)c3)CCC(F)(F)CC2)cc1OC: ++++++ (75 < * ≤ 100)
